Reported values of EC50 for individual entries
target-desc: porcine beta-2 adrenoceptor (Sus scrofa, UniProt Q28997)
Sequence (Q28997 whole entry): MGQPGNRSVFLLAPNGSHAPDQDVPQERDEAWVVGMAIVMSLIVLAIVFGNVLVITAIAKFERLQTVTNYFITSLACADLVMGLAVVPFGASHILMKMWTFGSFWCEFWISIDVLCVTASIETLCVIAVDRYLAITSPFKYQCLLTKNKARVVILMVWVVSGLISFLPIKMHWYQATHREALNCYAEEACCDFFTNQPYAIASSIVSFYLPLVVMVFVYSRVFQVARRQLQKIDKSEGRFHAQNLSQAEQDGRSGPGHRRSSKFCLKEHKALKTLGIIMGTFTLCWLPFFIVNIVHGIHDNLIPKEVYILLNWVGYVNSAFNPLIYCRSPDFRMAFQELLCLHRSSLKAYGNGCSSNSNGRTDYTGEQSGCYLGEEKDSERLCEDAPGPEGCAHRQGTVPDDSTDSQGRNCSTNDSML
experiment-notes: cAMP assay in CHO cells transfected with the porcine beta-2 adrenoceptor
run-parameters: cAMP (DiscoveRx Hit Hunter cAMP II) in CHO cells transfected with porcine beta-2 adrenoceptor, 30 minutes with compound, 0.5 mM IBMX
Remember to put the unit after the number in your answer.

The following compounds have reported results that may help.
> print(dat)
                                   compound  experimental.value
1  CC(CCc1ccccc1)N[C@@H]1CCn2c(=O)[nH]c3cccc(c32)[C@H]1O (single isomer, unassigned) [Example 9b]             34.3 nM
2  C[C@H](CCc1cccc(N)c1)N[C@@H]1CCn2c(=O)[nH]c3cccc(c32)[C@H]1O (single isomer, unassigned) [Example 46]             28.9 nM
3  CC(CCc1ccc2c(c1)CCO2)N[C@@H]1CCn2c(=O)[nH]c3cccc(c32)[C@H]1O (single isomer, unassigned) [Example 3c]              5.6 nM
4  COc1ccc(O)c(CCC(C)N[C@@H]2CCn3c(=O)[nH]c4cccc(c43)[C@H]2O)c1 (mixture of isomers) [Example 21]              3.1 nM
5  CC(CCc1ccc(F)cc1)N[C@@H]1CCn2c(=O)[nH]c3cccc(c32)[C@H]1O (mixture of isomers) [Example 23]             10.5 nM

Turning now to a further record.
Fill in EC50 for record CC(/C=C/c1ccccc1F)N[C@@H]1CCn2c(=O)[nH]c3cccc(c32)[C@H]1O (single isomer, unassigned) [Example 40a]
65.1 nM

###

Recorded EC50 for the following molecules
target-desc: UniProt Q28997
experiment-notes: cAMP assay in CHO cells transfected with the porcine beta-2 adrenoceptor
run-parameters: cAMP (DiscoveRx Hit Hunter cAMP II) in CHO cells transfected with porcine beta-2 adrenoceptor, 30 minutes with compound, 0.5 mM IBMX
The answer is to be given in nM; state only the numeric part.

> print(dat)
                                   molecule  quantity  experimental.value
1  CC(CCc1ccccc1NS(C)(=O)=O)N[C@@H]1CCn2c(=O)[nH]c3cccc(c32)[C@H]1O (mixture of isomers)      EC50                11.9

Please list EC50 recorded for the molecule CC(CCc1cc(F)ccc1O)N[C@@H]1CCn2c(=O)[nH]c3cccc(c32)[C@H]1O (single isomer, unassigned) [Example 7b]
0.5

For CC(CCc1cc(F)cc(Cl)c1O)N[C@@H]1CCn2c(=O)[nH]c3cccc(c32)[C@H]1O (mixture of isomers) , write its EC50.
2.2

Fill in reported EC50 for this entry: CC(CCc1cccc(C(N)=O)c1)NC1CCn2c(=O)[nH]c3cccc(c32)C1O (single isomer, unassigned)
141

Look up and report measured EC50 for this entry: CC(CCc1cc(Cl)ccc1O)N[C@@H]1CCn2c(=O)[nH]c3cccc(c32)[C@H]1O (single isomer, unassigned) [Example 19a]
0.9

Provide measured EC50 value, entry: CC(CCc1ccc(Cl)cc1O)N[C@@H]1CCn2c(=O)[nH]c3cccc(c32)[C@H]1O (mixture of isomers)
1.7

Determine its reported EC50: CC(CCc1ccc(O)c(C(F)(F)F)c1)NC1CCn2c(=O)[nH]c3cccc(c32)C1O (single isomer, unassigned)
15.9

For the molecule CC(CCc1ccc(O)cc1)N[C@@H]1CCn2c(=O)[nH]c3cccc(c32)[C@H]1O (single isomer, unassigned) [Example 2c] , give its reported EC50.
2.9

Write down EC50 measured for item CC(CCc1ccc(O)c(F)c1)NC1CCn2c(=O)[nH]c3cccc(c32)C1O (single isomer, unassigned) [Example 36]
2.2

Return value of EC50 for input CC(CCc1ccc(O)c(F)c1)NC1CCn2c(=O)[nH]c3cccc(c32)C1O (single isomer, unassigned) [Example 58] , no commentary.
2.4

Give a short answer stating reported EC50 for C[C@H](CCc1cccc(Cl)c1O)N[C@@H]1CCn2c(=O)[nH]c3cccc(c32)[C@H]1O (single isomer, unassigned) .
6

Dear colleague, please send me the reported EC50 for CC(CCc1cccc(F)c1O)N[C@@H]1CCn2c(=O)[nH]c3cccc(c32)[C@H]1O (mixture of isomers) [Example 28b] when you can.
80

Complete the entry with EC50 for CC(CCc1cccc(C(=O)O)c1)N[C@@H]1CCn2c(=O)[nH]c3cccc(c32)[C@H]1O (single isomer, unassigned)
78.8

Provide EC50 value for the following molecule: COc1cccc(CCC(C)N[C@@H]2CCn3c(=O)[nH]c4cccc(c43)[C@H]2O)c1O (single isomer, unassigned) [Example 8b]
1.1

Quote EC50 reported for CC(/C=C/c1ccccc1NS(C)(=O)=O)N[C@@H]1CCn2c(=O)[nH]c3cccc(c32)[C@H]1O (mixture of isomers) please.
104

For the molecule CC(CCc1cccc(NS(C)(=O)=O)c1)NC1CCn2c(=O)[nH]c3cccc(c32)C1O (single isomer, unassigned) , give its reported EC50.
31.5

Give me measured EC50, please, for this molecule: CC(CCc1ccc(C(=O)NCC(F)(F)F)cc1)N[C@@H]1CCn2c(=O)[nH]c3cccc(c32)[C@H]1O (single isomer, unassigned)
38.4

Annotate the molecule C[C@H](CCc1ccccc1O)N[C@@H]1CCn2c(=O)[nH]c3cccc(c32)[C@H]1O with its measured EC50.
1.9

Give EC50 for CC(CCc1ccc(NC(=O)C(F)(F)F)cc1)NC1CCn2c(=O)[nH]c3cccc(c32)C1O (single isomer, unassigned)
12.1

Complete the entry with EC50 for CC(CCc1cccc(CO)c1)N[C@@H]1CCn2c(=O)[nH]c3cccc(c32)[C@H]1O (mixture of isomers)
61.7

###

target-desc: bovine beta-2 adrenoceptor (Bos taurus)
Sequence (Q28044 whole entry): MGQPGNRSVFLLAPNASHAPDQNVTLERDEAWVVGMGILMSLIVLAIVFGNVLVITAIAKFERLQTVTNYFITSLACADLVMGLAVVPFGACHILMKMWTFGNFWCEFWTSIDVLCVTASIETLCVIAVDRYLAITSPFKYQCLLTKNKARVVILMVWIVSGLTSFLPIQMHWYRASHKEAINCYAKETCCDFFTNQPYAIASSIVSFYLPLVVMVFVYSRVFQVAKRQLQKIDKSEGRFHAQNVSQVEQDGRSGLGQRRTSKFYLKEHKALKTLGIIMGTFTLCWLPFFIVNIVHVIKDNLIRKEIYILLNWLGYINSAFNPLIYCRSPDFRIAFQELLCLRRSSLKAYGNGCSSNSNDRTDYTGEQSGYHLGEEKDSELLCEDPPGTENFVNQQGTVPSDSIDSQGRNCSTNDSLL
experiment-notes: cAMP assay in CHO cells transfected with the bovine beta-2 adrenoceptor
run-parameters: cAMP (DiscoveRx Hit Hunter cAMP II) in CHO cells transfected with bovine beta-2 adrenoceptor, 30 minutes with compound, 0.5 mM IBMX
quantity: pEC50
By convention, pEC50 is the negative base-10 log of a molar concentration.

State its pEC50: CC(CCc1cc(C#N)ccc1O)N[C@@H]1CCn2c(=O)[nH]c3cccc(c32)[C@H]1O (mixture of isomers)
8.92

Output pEC50 of CNC(=O)c1cccc(CCC(C)NC2CCn3c(=O)[nH]c4cccc(c43)C2O)c1 (single isomer, unassigned)
7.61

Give the reported pEC50 for this compound. COc1cccc(CCC(C)N[C@@H]2CCn3c(=O)[nH]c4cccc(c43)[C@H]2O)c1O (single isomer, unassigned) [Example 8b]
9.15

Give the reported value of pEC50 for this record: CC(CCc1c(Cl)ccc(O)c1Cl)NC1CCn2c(=O)[nH]c3cccc(c32)C1O (single isomer, unassigned)
8.37

State, in one line, measured pEC50 of Cc1ccccc1CCC(C)NC1CCn2c(=O)[nH]c3cccc(c32)C1O (stereo not shown) [Example 13a]
8.37

Return pEC50 (reported value) for this compound: Cc1ccccc1CCC(C)N[C@@H]1CCn2c(=O)[nH]c3cccc(c32)[C@H]1O (mixture of isomers) [Example 13b]
8.70

###

target-desc: porcine beta-2 adrenoceptor (Sus scrofa, UniProt Q28997)
experiment-notes: cAMP assay in CHO cells transfected with the porcine beta-2 adrenoceptor
run-parameters: cAMP (DiscoveRx Hit Hunter cAMP II) in CHO cells transfected with porcine beta-2 adrenoceptor, 30 minutes with compound, 0.5 mM IBMX
quantity: log10 EC50 (log10 of the value in nM)
Remember, log10 of EC50, in nM.

Field: example entries. Status: answers known.
> print(dat)
                                   molecule  experimental.value
1  CC(CC(C)(C)c1ccccc1)N[C@@H]1CCn2c(=O)[nH]c3cccc(c32)[C@H]1O (single isomer, unassigned) [Example 14b]                0.62
2  CC(CCc1ccc(C(=O)O)cc1)NC1CCn2c(=O)[nH]c3cccc(c32)C1O (single isomer, unassigned) [Example 68]                2.11
3  CC(CCc1cccc(C(F)(F)F)c1)N[C@@H]1CCn2c(=O)[nH]c3cccc(c32)[C@H]1O (mixture of isomers) [Example 30]                0.74
4  CC(CCc1ccc2c(c1)CCO2)N[C@@H]1CCn2c(=O)[nH]c3cccc(c32)[C@H]1O (single isomer, unassigned) [Example 3a]                0.91
5  CNC(=O)c1cccc(CCC(C)NC2CCn3c(=O)[nH]c4cccc(c43)C2O)c1 (single isomer, unassigned) [Example 62]                1.28

Consider the molecule CC(CCc1cc(C(F)(F)F)ccc1O)N[C@@H]1CCn2c(=O)[nH]c3cccc(c32)[C@H]1O (mixture of isomers) [Example 31] and give its recorded log10 EC50.
0.91

Return value of log10 EC50 for input CC(CCc1ccccc1O)N[C@@H]1CCn2c(=O)[nH]c3cccc(c32)[C@H]1O (mixture of isomers) [Example 6a] , no commentary.
0.18

Please report the measured log10 EC50 for CC(CCc1ccc(OC(C)C)cc1)N[C@@H]1CCn2c(=O)[nH]c3cccc(c32)[C@H]1O (mixture of isomers) [Example 16]
0.74

Return log10 EC50 (reported value) for this molecule: CC(CCc1cccc(F)c1O)N[C@@H]1CCn2c(=O)[nH]c3cccc(c32)[C@H]1O (single isomer, unassigned) [Example 28a]
0.26

Report log10 EC50 for Cc1ccccc1CCC(C)NC1CCn2c(=O)[nH]c3cccc(c32)C1O (centres unmarked) [Example 13a]
0.59
